procedure.summary: chemical genetic growth profiling, strain panel (AID 1159580);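 also: tested at 20 µM; growth read once vehicle control cultures reached saturation at 30 °C; 1 = growth at the plate median or of vehicle wells; lower values mean less growth of the strain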
test.conditions: S. cerevisiae deletion strains, growth OD, locus YER167W, strain BCK2, active compounds read low
Hit rate of the full screen: of about 5,500 compounds, about 2,000 (36%) were called active. Another 18% or so got no clear call; they are omitted. The list shows a part of the results.
result.type: normalized growth
Numbers only.

> print(dat)
                                   compound  endpoint.result
1  COc1c2c(cc3occ(-c4ccc5c(c4)OCO5)c(=O)c13)OC(C)(C)C=C2            0.984
2            C=C(C)c1cc2cc(C(C)=O)c(O)cc2o1            0.904
3                 COc1cc2ccc(=O)oc2c2ccoc12             1.01

// input: 3 compounds below; output: normalized growth for each
1. COc1ccc2c(=O)c(CC(=O)O)coc2c1
2. Cc1cc(C)nc(NS(=O)(=O)c2ccc(N)cc2)n1
3. CC1=C(C(=O)O)N2C(=O)[C@@H](NC(=O)[C@H](N)C3=CCC=CC3)C2SC1 (stereo partly specified)

1. 1.01
2. 0.995
3. 0.989

====

procedure.summary: chemical genetic growth profiling, strain panel (AID 1159580)
test.conditions: S. cerevisiae deletion strains, growth OD, locus YLR102C, strain apc9, active compounds read low
The whole screen tested about 5,500 compounds, of which about 2,000 (36%) were called active. Inconclusive results (about 18%) are left out. The list shows a part of the results.
result.type: normalized growth

In the examples that follow, each entry is paired with its recorded normalized growth.
> print(dat)
                      smiles.representation        result.type  endpoint.result
1          CC(C)=CCOc1c2occc2cc2ccc(=O)oc12  normalized growth   0.843 (active)
2                     COc1cc2ccc(=O)oc2cc1O  normalized growth     1 (inactive)
3                COc1cc2ccc(=O)oc2c(OC)c1OC  normalized growth  1.02 (inactive)
4  COc1ccc2c(=O)c(-c3cc4c(cc3OC)OCO4)coc2c1  normalized growth  1.01 (inactive)
5  CC(C)=CCc1c(O)cc2occ(-c3ccc4c(c3)OCO4)c(=O)c2c1O  normalized growth  1.03 (inactive)

Pending molecule:
Summary for this molecule, `CC1=C2[C@](C)(C=CC1=O)C[C@H](O)[C@H]1[C@H](C)C(=O)O[C@]21C` : normalized growth is 1.02 (inactive)

====

procedure.summary: chemical genetic growth profiling, strain panel (AID 1159580)
test.conditions: S. cerevisiae deletion strains, growth OD, locus YNL209W, strain ssb2
Screen size: about 5,500 compounds; about 2,000 (36%) were called active. Roughly 18% stayed inconclusive and do not appear here. Rule as the data show it: active = normalized growth mostly below about 0.91 (no sharp cut-off); inconclusive = no clear call, values can overlap the other calls; inactive = mostly above about 0.92. The list shows a part of the results.
Thanks in advance; please answer with one of these: active, inactive

Illustrative cases are given below, each with its answer.
> print(dat)
                                   compound  class.label
1  Cc1cc(O)c2c(c1O)C(=O)c1c(O)cc(C)c(O)c1C2=O     inactive
2             COP(=S)(OC)SCn1nnc2ccccc2c1=O     inactive
3                      CNC(=O)CSP(=S)(OC)OC     inactive
4       O=C1c2ccccc2C(=O)c2c(O)c(O)cc(O)c21       active
5  CC(C)CCCC(C)[C@H]1CCC2C3CC[C@H]4CC(=O)CC[C@]4(C)C3CC[C@@]21C (stereo partly drawn)     inactive
6  CC1=C(C(=O)O)N2C(=O)[C@@H](NC(=O)[C@H](N)C3=CCC=CC3)C2SC1 (stereo partly drawn)     inactive
7    O=C1c2ccc(O)c(O)c2C(=O)c2c(O)ccc(O)c21       active
8  CCCC(=O)Nc1ncnc2c1ncn2C1O[C@@H]2COP(=O)(O)O[C@H]2[C@H]1OC(=O)CCC (stereo partly drawn)     inactive

Assay result, entry CN1Cc2c(N)cccc2C(c2ccccc2)C1 (stereo not drawn) — outcome?
inactive

Assay result, entry `O=C(/C=C/C(=O)Oc1ccccc1C(=O)O)Oc1ccccc1C(=O)O` — outcome?
inactive

Assay result, entry OC[C@@H](O)C(O[C@@H]1O[C@H](CO)[C@H](O)[C@H](O)[C@H]1O)[C@H](O)[C@@H](O)CO (stereo partly drawn) — outcome?
inactive

Assay result, entry `O=c1ccc2ccc(O)c(O)c2o1` — outcome?
inactive

Assay result, entry `O=C(O)c1cccc(O)c1O` — outcome?
inactive

====

procedure.summary: chemical genetic growth profiling, strain panel (AID 1159580);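 also: tested at 20 µM; growth read once vehicle control cultures reached saturation at 30 °C; 1 = growth at the plate median or of vehicle wells; lower values mean less growth of the strain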
test.conditions: S. cerevisiae deletion strains, growth OD, locus YOR290C, strain snf2, active compounds read low
Hit rate of the full screen: of about 5,500 compounds, about 2,000 (36%) were called active. About 18% were inconclusive and are not listed. The list shows a part of the results.
Would you kindly list normalized growth for each of these molecules?

In the examples that follow, each entry is paired with its recorded normalized growth.
> print(dat)
                                    molecule        result.type   endpoint.result
 1  O=C(/C=C/C(=O)Oc1ccccc1C(=O)O)Oc1ccccc1C(=O)O  normalized growth   0.98 (inactive)
 2              Cn1c(=O)[nH]c(=O)c2[nH]cnc21  normalized growth  0.987 (inactive)
 3            C=C(C)c1cc2cc(C(C)=O)c(O)cc2o1  normalized growth  0.893 (inactive)
 4  CC(C(=O)O)c1ccc(N2Cc3ccccc3C2=O)cc1 (stereo unspecified)  normalized growth  0.917 (inactive)
 5              CC(=O)N[C@@H](CC(=O)O)C(=O)O  normalized growth  0.998 (inactive)
 6       O=C1c2ccccc2C(=O)c2c(O)c(O)cc(O)c21  normalized growth    0.282 (active)
 7  O=c1cc(-c2ccc(O)cc2)oc2cc(O[C@@H]3O[C@H](CO)[C@@H](O)[C@H](O)[C@H]3O[C@@H]3OC[C@](O)(CO)[C@H]3O)cc(O)c12  normalized growth  0.998 (inactive)
 8  C[N+]1(C)CCc2cc3c(cc2[C@H]1C1OC(=O)c2c1ccc1c2OCO1)OCO3 (stereo partly specified)  normalized growth   0.95 (inactive)
 9  CSCCC(NC=O)C(=O)NC(CC(C)C)C(=O)NC(Cc1ccccc1)C(=O)O (stereo unspecified)  normalized growth   1.01 (inactive)
10    O=C1c2ccc(O)c(O)c2C(=O)c2c(O)ccc(O)c21  normalized growth    0.578 (active)

Pending molecule:
Summary for this molecule, `Cc1cc(O)c2c(c1O)C(=O)c1c(O)cc(C)c(O)c1C2=O` : normalized growth is 0.914 (inactive)

====

procedure.summary: chemical genetic growth profiling, strain panel (AID 1159580);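 also: tested at 20 µM; growth read once vehicle control cultures reached saturation at 30 °C; 1 = growth at the plate median or of vehicle wells; lower values mean less growth of the strain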
test.conditions: S. cerevisiae deletion strains, growth OD, locus YGR078C, strain PAC10
The whole screen tested about 5,500 compounds, of which about 2,000 (36%) were called active. Inconclusive results (about 18%) are left out. Rule as the data show it: active = normalized growth mostly below about 0.91 (no sharp cut-off); inconclusive = no clear call, values can overlap the other calls; inactive = mostly above about 0.92. Some of the results follow.
Thanks in advance; please answer with one of these: active, inactive

Illustrative cases are given below, each with its answer.
> print(dat)
                      smiles.representation  class.label
1                   Cc1nccc2c1[nH]c1ccccc12     inactive
2              c1ccc2c(c1)-c1cccc3cccc-2c13       active
3          Cc1c2ccncc2c(C)c2c1[nH]c1ccccc12       active
4  CC(C)(C)c1ccc(C(=O)N/N=C\c2cc(Cl)cc(Cl)c2O)cc1       active
5             COc1ccc2c(c1)[nH]c1c(C)nccc12     inactive

Assay result, entry `O=S(=O)(O)c1cccc2cccc(Cl)c12` — outcome?
inactive

Assay result, entry `Cn1cnc([N+](=O)[O-])c1Sc1ncnc2nc[nH]c12` — outcome?
inactive

====

Would you kindly list normalized growth for each of these molecules?
procedure.summary: chemical genetic growth profiling, strain panel (AID 1159580);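 also: tested at 20 µM; growth read once vehicle control cultures reached saturation at 30 °C; 1 = growth at the plate median or of vehicle wells; lower values mean less growth of the strain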
test.conditions: S. cerevisiae deletion strains, growth OD, locus YHR079C, strain IRE1, active compounds read low
About 2,000 (36%) of roughly 5,500 compounds were called active. Inconclusive results (about 18%) are left out. The list shows a part of the results.
One number for each entry.

In the examples that follow, each entry is paired with its recorded normalized growth.
> print(dat)
                      smiles.representation  endpoint.result
1  COc1c2c(cc3occ(-c4ccc5c(c4)OCO5)c(=O)c13)OC(C)(C)C=C2            0.983
2  CSc1nc(Sc2n[nH]c(-c3ccccc3)n2)cc(Sc2n[nH]c(-c3ccccc3)n2)n1            0.928
3  CC(C)=CCc1c(O)cc2occ(-c3ccc4c(c3)OCO4)c(=O)c2c1O              0.8

// input: 3 molecules below; output: normalized growth for each
1. NCCS
2. CNC(=O)CSP(=S)(OC)OC
3. COP(=S)(OC)SCn1nnc2ccccc2c1=O

1: 1.04; 2: 1.04; 3: 0.979
